Target: human A1 receptor subtype (Homo sapiens)
Sequence (P30542 1-326): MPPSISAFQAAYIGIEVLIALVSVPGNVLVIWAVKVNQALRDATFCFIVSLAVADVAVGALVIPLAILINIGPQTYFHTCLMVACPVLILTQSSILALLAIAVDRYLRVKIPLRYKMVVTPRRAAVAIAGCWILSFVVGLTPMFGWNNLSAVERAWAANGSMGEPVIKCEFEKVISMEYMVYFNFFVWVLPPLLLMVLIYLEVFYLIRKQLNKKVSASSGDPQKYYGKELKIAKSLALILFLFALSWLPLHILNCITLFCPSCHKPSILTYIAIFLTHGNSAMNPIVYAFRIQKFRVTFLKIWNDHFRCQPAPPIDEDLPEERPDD
Details: read-out: A1 Binding Ki; Tables 7-13, deazapurine analogues
Listing: Ki of selected molecules
Remember to put the unit after the number in your answer.

State the recorded Ki for this entry: Cc1[nH]c2nc(-c3ccccc3)nc(NC3CCC(OC(=O)c4ccccc4)CC3)c2c1C (centres unmarked) [Compound 606] 298 nM

Please look at the following molecule next.
Which value of Ki has been reported for Cc1[nH]c2nc(-c3ccccc3)nc(NC3CCC(OC(=O)c4ccccc4)CC3)c2c1C (centres unmarked) [Compound 611] in the records? 786 nM

###

target: human A2a receptor subtype (Homo sapiens, UniProt P29274); construct: purchased Receptor Biology (Beltsville, Md.) RB-HA2a; host or cells: HEK-293, stably expressing; experiment: Adenosine 2a receptor subtype competition radioligand binding, [3H]CGS-21680, HEK293 membranes
Sequence (P29274 whole entry): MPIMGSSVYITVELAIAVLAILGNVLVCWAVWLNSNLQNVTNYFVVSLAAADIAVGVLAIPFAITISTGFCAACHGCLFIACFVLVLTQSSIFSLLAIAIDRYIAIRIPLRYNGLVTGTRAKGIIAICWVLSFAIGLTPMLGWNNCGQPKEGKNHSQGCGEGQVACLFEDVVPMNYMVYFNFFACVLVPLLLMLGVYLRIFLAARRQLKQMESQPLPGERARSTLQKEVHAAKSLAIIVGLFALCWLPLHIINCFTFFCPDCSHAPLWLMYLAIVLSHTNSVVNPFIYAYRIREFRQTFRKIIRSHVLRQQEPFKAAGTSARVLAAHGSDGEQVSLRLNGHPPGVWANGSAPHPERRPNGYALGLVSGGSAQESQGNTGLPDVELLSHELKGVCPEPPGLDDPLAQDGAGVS
pKi: −log10 of the molar value.
measurement.name: pKi

Quick check: pKi of CC(=O)NCCNc1nc(-c2ccccc2)nc2[nH]c(C)c(C)c12 ? 7.31 to 7.74

###

Molecular target: human A1 receptor subtype (Homo sapiens, UniProt P30542)
Sequence (P30542 1-326): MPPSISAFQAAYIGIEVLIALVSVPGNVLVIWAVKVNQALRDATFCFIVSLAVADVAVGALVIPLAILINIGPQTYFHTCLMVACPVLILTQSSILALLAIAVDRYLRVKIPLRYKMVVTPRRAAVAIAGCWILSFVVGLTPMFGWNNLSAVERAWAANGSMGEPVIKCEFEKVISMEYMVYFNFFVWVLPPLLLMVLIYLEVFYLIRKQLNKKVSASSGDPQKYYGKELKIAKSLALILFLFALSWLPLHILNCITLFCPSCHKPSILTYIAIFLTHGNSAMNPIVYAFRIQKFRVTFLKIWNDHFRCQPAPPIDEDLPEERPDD
Experiment: biochemical
Below, each of the compounds is paired with its reported pKi value.
In textbook form, pKi equals minus log to base ten of the concentration in mol/L.

Worked examples, 4 compounds total:
Given the compound NC(=O)[C@@H]1CCCN1c1nc(-c2ccccc2)nc2[nH]cnc12 , what is its reported pKi? 9.05

Record: CC(=O)NCCNc1nc(-c2ccccc2)nc2[nH]ncc12 7.94

How about this compound: NC(=O)[C@@H]1CCCN1c1nc(-c2ccccc2)nc2[nH]nnc12 7.09

Now the same for NC(=O)[C@H]1CCCN1c1nc(-c2ccccc2)nc2[nH]cnc12 7.91

New cases:
Look up pKi: O[C@H]1CC[C@H](Nc2nc(-c3ccccc3)nc3[nH]cnc23)CC1 8.82

Item: O[C@H]1CC[C@H](Nc2nc(-c3ccccc3)nc3[nH]nnc23)CC1 7.28

Moving on to O[C@H]1CC[C@H](Nc2nc(-c3ccccc3)nc3[nH]ncc23)CC1 8.36

Thanks! And CC(=O)NCCNc1nc(-c2ccccc2)nc2[nH]cnc12 ? 8.13

What do we get for NC(=O)[C@H]1CCCN1c1nc(-c2ccccc2)nc2[nH]ncc12 ? 7.12

Now the same for NC(=O)[C@@H]1CCCN1c1nc(-c2ccccc2)nc2[nH]ncc12 9.22
